In this section we review reported Test I rating (disease control) values for a set of compounds.
# Test system: Blumeria graminis f. sp. tritici
# TEST PROTOCOL: Test I: wheat powdery mildew, preventive spray on wheat seedlings, visual disease rating
# CONDITION NOTES: wheat powdery mildew; 100 = 100% disease control, 0 = no disease control relative to the controls
Provide only the numeric value, understood in %.

Example entries begin here.
[
  {
    "SMILES CODE": "Cc1nn(C)c(Nc2ccc(F)cc2F)c1-c1c(Cl)cccc1Cl",
    "TEST SYSTEM": "Blumeria graminis f. sp. tritici",
    "MEASUREMENT LABEL": "Test I rating (disease control)",
    "RECORDED VALUE": 100
  },
  {
    "SMILES CODE": "Cc1nn(C)c(Nc2c(F)cc(F)cc2Cl)c1-c1ccc(Cl)cc1Cl",
    "TEST SYSTEM": "Blumeria graminis f. sp. tritici",
    "MEASUREMENT LABEL": "Test I rating (disease control)",
    "RECORDED VALUE": 99
  },
  {
    "SMILES CODE": "Cc1nn(C)c(Nc2c(F)cc(C#N)cc2F)c1-c1c(F)cc(F)cc1F",
    "TEST SYSTEM": "Blumeria graminis f. sp. tritici",
    "MEASUREMENT LABEL": "Test I rating (disease control)",
    "RECORDED VALUE": 100
  },
  {
    "SMILES CODE": "COc1ccc(-c2c(C)nn(C)c2Oc2ccc(C#N)cc2Cl)c(Br)c1",
    "TEST SYSTEM": "Blumeria graminis f. sp. tritici",
    "MEASUREMENT LABEL": "Test I rating (disease control)",
    "RECORDED VALUE": 89
  }
]

Let us examine a further case.
I'm curious: which Test I rating (disease control) was measured for Cc1nn(C)c(Nc2ccc(F)cc2F)c1-c1ccc(C#N)cc1Cl tested on Blumeria graminis f. sp. tritici?
97

====

# Tested on: Alternaria solani
# TEST PROTOCOL: Test B: tomato early blight, preventive spray on tomato seedlings, visual disease rating
# CONDITION NOTES: tomato early blight, preventive spray; 100 = 100% disease control; rating without asterisk
Given measured Test B rating (% disease control), output class 1 if it is greater than or equal to 90% and class 0 if not.

Solved entries (count: 10):
[
  {
    "COMPOUND": "COc1ccc(-c2c(C)nn(C)c2Nc2c(Cl)cc(F)cc2Cl)c(Cl)c1",
    "TEST SYSTEM": "Alternaria solani",
    "CLASS ASSIGNMENT": "class 0"
  },
  {
    "COMPOUND": "Cc1nn(C)c(Nc2c(Cl)cc(Cl)cc2I)c1-c1ccc(F)cc1Cl",
    "TEST SYSTEM": "Alternaria solani",
    "CLASS ASSIGNMENT": "class 0"
  },
  {
    "COMPOUND": "Cc1nn(C)c(Nc2c(F)cc(I)cc2F)c1-c1ccc(F)cc1Br",
    "TEST SYSTEM": "Alternaria solani",
    "CLASS ASSIGNMENT": "class 0"
  },
  {
    "COMPOUND": "CCOc1ccc(-c2c(C)nn(C)c2Nc2c(F)cc(F)cc2Cl)c(Cl)c1",
    "TEST SYSTEM": "Alternaria solani",
    "CLASS ASSIGNMENT": "class 1"
  },
  {
    "COMPOUND": "Cc1nn(C)c(Nc2c(F)cc(Cl)cc2F)c1-c1ccc(F)cc1I",
    "TEST SYSTEM": "Alternaria solani",
    "CLASS ASSIGNMENT": "class 0"
  },
  {
    "COMPOUND": "CCOc1cc(F)c(-c2c(C)nn(C)c2Nc2c(F)cc(Cl)cc2F)c(F)c1",
    "TEST SYSTEM": "Alternaria solani",
    "CLASS ASSIGNMENT": "class 1"
  },
  {
    "COMPOUND": "Cc1nn(C)c(Nc2c(F)cc(Cl)cc2I)c1-c1ccc(F)cc1Cl",
    "TEST SYSTEM": "Alternaria solani",
    "CLASS ASSIGNMENT": "class 1"
  },
  {
    "COMPOUND": "COc1ccc(-c2c(C)nn(C)c2Nc2c(Cl)cc(F)cc2Cl)c(F)c1",
    "TEST SYSTEM": "Alternaria solani",
    "CLASS ASSIGNMENT": "class 1"
  },
  {
    "COMPOUND": "Cc1nn(C)c(Nc2c(F)cc(F)cc2I)c1-c1ccc(F)cc1F",
    "TEST SYSTEM": "Alternaria solani",
    "CLASS ASSIGNMENT": "class 1"
  },
  {
    "COMPOUND": "CCOc1ccc(-c2c(C)nn(C)c2Nc2c(F)cc(Cl)cc2F)c(Cl)c1",
    "TEST SYSTEM": "Alternaria solani",
    "CLASS ASSIGNMENT": "class 1"
  }
]

Identify whether the reported Test B rating (% disease control) of the following compound is 90% or greater: Cc1nn(C)c(Nc2c(Cl)cc(F)cc2Cl)c1-c1ccc(Cl)cc1F
class 0

Would you say COc1ccc(-c2c(C)nn(C)c2Nc2c(F)cc(F)cc2Br)c(Cl)c1 shows Test B rating (% disease control) at minimum 90%?
class 1

Quick check: does COc1ccc(-c2c(C)nn(C)c2Nc2c(F)cc(F)cc2Cl)c(Cl)c1 have Test B rating (% disease control) greater than or equal to 90%?
class 1

Dear colleague, could you confirm whether Cc1nn(C)c(Nc2c(F)cccc2Cl)c1-c1ccc(F)cc1F has Test B rating (% disease control) at or above 90%?
class 1

Would you say Cc1nn(C)c(Nc2ccc(Br)cc2Br)c1-c1ccc(F)cc1F shows Test B rating (% disease control) at minimum 90%?
class 0

Please check the record CCOc1ccc(-c2c(C)nn(C)c2Nc2ccc(F)cc2F)c(F)c1 and state if its Test B rating (% disease control) is at or above 90%.
class 0

Form field: Test B rating (% disease control) at least 90%? Entry: Cc1nn(C)c(C(O)c2ccc(C#N)cc2F)c1-c1ccc(F)cc1Cl (racemic)
class 0

====

# Test system: Septoria nodorum
# TEST PROTOCOL: Test E: Septoria glume blotch, preventive spray on wheat seedlings, visual disease rating
# CONDITION NOTES: Septoria glume blotch on wheat, preventive spray; 100 = 100% disease control; rating without asterisk
Threshold rule: Test E rating (% disease control) greater than or equal to 90% is MET; below that, NOT MET.

Record excerpt, results attached:
[
  {
    "COMPOUND": "Cc1nn(C)c(Nc2c(F)cc(F)cc2Br)c1-c1ccc(F)cc1I [compound 226]",
    "TEST SYSTEM": "Septoria nodorum",
    "CLASS ASSIGNMENT": "NOT MET"
  },
  {
    "COMPOUND": "CCOc1ccc(-c2c(C)nn(C)c2Nc2c(F)cc(F)cc2Cl)c(Cl)c1 [compound 206]",
    "TEST SYSTEM": "Septoria nodorum",
    "CLASS ASSIGNMENT": "MET"
  },
  {
    "COMPOUND": "Cc1nn(C)c(Nc2c(F)cc(F)cc2I)c1-c1ccc(F)cc1F [compound 214]",
    "TEST SYSTEM": "Septoria nodorum",
    "CLASS ASSIGNMENT": "MET"
  },
  {
    "COMPOUND": "Cc1nn(C)c(Nc2c(F)cc(Br)cc2Br)c1-c1ccc(F)cc1F [compound 211]",
    "TEST SYSTEM": "Septoria nodorum",
    "CLASS ASSIGNMENT": "MET"
  },
  {
    "COMPOUND": "Cc1nn(C)c(Nc2c(F)cccc2Cl)c1-c1ccc(F)cc1F [Compound 275]",
    "TEST SYSTEM": "Septoria nodorum",
    "CLASS ASSIGNMENT": "NOT MET"
  },
  {
    "COMPOUND": "Cc1nn(C)c(Nc2c(F)cc(F)cc2Br)c1-c1ccc(Cl)cc1F [compound 229]",
    "TEST SYSTEM": "Septoria nodorum",
    "CLASS ASSIGNMENT": "NOT MET"
  }
]

Check if Test E rating (% disease control) >= 90% (inclusive). Item: CCOc1ccc(-c2c(C)nn(C)c2Nc2c(Cl)cc(F)cc2Cl)c(Cl)c1 [compound 208]
NOT MET

Does Test E rating (% disease control) meet or surpass 90% for COc1ccc(-c2c(C)nn(C)c2Nc2c(Cl)cc(F)cc2Cl)c(F)c1 [compound 194] ?
NOT MET

Decide: is the reported value of Test E rating (% disease control) for Cc1nn(C)c(Nc2c(F)cc(Cl)cc2I)c1-c1ccc(F)cc1Cl [compound 182] equal to or greater than 90%?
MET
